Values compiled from the supplement of paper PMC10567573.

B1: CDS2 (parent)
chain: IHSIALSTFASLIGPFGGFFASGF

Variants of: B1
Assay: protein stability index of a GFP-peptide fusion (GPS, HEK-293T) (PSI 1-6); higher = more stable;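 also: lentivirally expressed fusions sorted by FACS into six bins by GFP to DsRed ratio, PSI derived from sequencing read proportions per bin multiplied by bin number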
Conditions: c terminus: a fixed tail appended
measured-attribute: protein stability index
Form field (numeric): enter value without unit.

Before answering, review these 3 worked examples.
{"columns": ["sequence-code", "protein stability index"],
 "data": [
  ["IHSIALSTFASLIGPFGGFFSSGF [A21S]", 2.54],
  ["IHTIALSTFASLIGPFGGFFASGF [S3T]", 2.8],
  ["IESIALSTFASLIGPFGGFFASGF [H2E]", 1.8]
]}

Tell me measured protein stability index for IHSIALSTFASLIGPFGNFFASGF [G18N] please.
2.01

Tell me measured protein stability index for IHSIALSTFASSIGPFGGFFASGF [L12S] please.
3.23

Tell me measured protein stability index for IHSIALSTFASLIGPFHGFFASGF [G17H] please.
3.56

Tell me measured protein stability index for IHSIAKSTFASLIGPFGGFFASGF [L6K] please.
3.48

Tell me measured protein stability index for IHSIALWTFASLIGPFGGFFASGF [S7W] please.
3.82

Tell me measured protein stability index for IKSIALSTFASLIGPFGGFFASGF [H2K] please.
3.27

Tell me measured protein stability index for IHSIALSTFASLKGPFGGFFASGF [I13K] please.
2.49
